System: S. aureus ATCC 33592 (MRSA) Parental Wild-Type
Assay: Kirby-Bauer zones of inhibition (ZOI) antibiotic susceptibility assay, untreated MRSA parent strain; note: key: R = resistant; S = susceptible
Assay type: cell-based
Details: S. aureus ATCC 33592 (MRSA), untreated parent; Kirby-Bauer ZOI
Recorded Endpoint: Susceptibility class (CLSI)

Solved entries:
{"columns": ["Molecule", "Study System", "Susceptibility class (CLSI)"],
 "data": [
  ["CN(C)[C@@H]1C(O)=C(C(N)=O)C(=O)[C@@]2(O)C(O)=C3C(=O)c4c(O)cccc4[C@@](C)(O)[C@H]3C[C@@H]12", "S. aureus ATCC 33592 (MRSA) Parental Wild-Type", "R"],
  ["CCn1cc(C(=O)O)c(=O)c2cc(F)c(N3CCNCC3)cc21", "S. aureus ATCC 33592 (MRSA) Parental Wild-Type", "S"],
  ["Cc1onc(-c2ccccc2)c1C(=O)N[C@@H]1C(=O)N2[C@@H]1SC(C)(C)[C@@H]2C(=O)O", "S. aureus ATCC 33592 (MRSA) Parental Wild-Type", "R"],
  ["CO[C@H]1/C=C/O[C@@]2(C)Oc3c(C)c(O)c4c(O)c(c(/C=N/N5CCN(C)CC5)c(O)c4c3C2=O)NC(=O)/C(C)=C\\C=C\\[C@H](C)[C@H](O)[C@@H](C)[C@@H](O)[C@@H](C)[C@H](OC(C)=O)[C@@H]1C", "S. aureus ATCC 33592 (MRSA) Parental Wild-Type", "R"],
  ["CC(=O)NC[C@H]1CN(c2ccc(N3CCOCC3)c(F)c2)C(=O)O1", "S. aureus ATCC 33592 (MRSA) Parental Wild-Type", "S"]
]}

Shift focus to the following entry.
The value of Susceptibility class (CLSI) measured for the compound CC=CC1=C(C(=O)O)N2C(=O)[C@@H](NC(=O)[C@H](N)c3ccc(O)cc3)[C@H]2SC1 turned out to be R

These data points were gathered from patent US20200398077A1.
